- assayed.target: T1, Homo sapiens factor Bb protein (human, UniProt P00751 260-764)
- T1 construct: Bought from CompTech (A155); also called complement factor Bb; human factor Bb
- T1 sequence (P00751 260-764 limits assumed): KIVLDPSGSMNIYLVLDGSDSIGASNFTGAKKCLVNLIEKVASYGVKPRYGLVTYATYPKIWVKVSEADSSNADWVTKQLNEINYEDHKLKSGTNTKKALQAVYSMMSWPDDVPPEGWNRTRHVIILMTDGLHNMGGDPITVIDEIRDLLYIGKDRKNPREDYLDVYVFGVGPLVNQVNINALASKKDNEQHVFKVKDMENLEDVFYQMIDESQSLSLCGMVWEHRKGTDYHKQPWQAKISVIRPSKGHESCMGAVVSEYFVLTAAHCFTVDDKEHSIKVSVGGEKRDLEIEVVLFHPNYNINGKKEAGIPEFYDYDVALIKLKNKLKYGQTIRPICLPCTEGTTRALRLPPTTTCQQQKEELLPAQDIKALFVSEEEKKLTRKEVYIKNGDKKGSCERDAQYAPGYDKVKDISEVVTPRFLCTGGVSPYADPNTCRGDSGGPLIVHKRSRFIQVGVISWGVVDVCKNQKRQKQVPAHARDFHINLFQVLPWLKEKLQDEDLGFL
- procedure.summary: SPR multi-cycle kinetics; ratio against VH0/Vκ0 on the same chip
endpoint: Relative KD
Lab note: record just the number, no unit beside it.

Q: Item VH7/Vκ7 (antibody, V domains shown, Redesigned variant; cloned into the appropriate expression vector (IgG4v1 and kappa were used in the first round); also called VH7/VκK7) VH: EVQLVESGGGLVKPGGSLRLSCAASGFTFSNYAMSWVRQTPEKRLEWVATISNRGSYTYYPDSVKGRFTISRDNAKNSLYLQMNSLRAEDTALYYCARERPMDYWGQGTLVTVSS VL: DIQMTQSPSTLSASVGDRVTITCKASQDVGTAVAWYQQKPGKAPKLLIYWASTRHTGVPDRFSGSGSGTDFTLTISSLQAEDFAVYFCHQHSSNPLTFGQGTKLEIK has what recorded Relative KD?
Result: 5.01
